Test system: VDR:RXRa (NR concentration 270 nM, RXRa partner concentration 90 nM)
Experiment summary: PBM binding z-score (relative to random genomic background probes); higher = stronger binding; sequences stand for … in GC…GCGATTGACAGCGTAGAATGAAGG
Observation type: PBM binding z-score

Biosequence | Observation type | Measurement
ACTATTGGTTGAGACGAGGGCAACCGATAGGTTG | PBM binding z-score | 0.873
TCTAGTAGGTTAGGGGCATTCAGAATGGCGTCGA | PBM binding z-score | 1.04
GCTATTAGTTGAAAGGGCAACAGAATGATTCTCG | PBM binding z-score | 0.688
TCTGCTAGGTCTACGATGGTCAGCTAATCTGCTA | PBM binding z-score | -0.625
TGAATGAGGTTATAAGAGCAGGGAACGTTGCAAA | PBM binding z-score | 0.901
AGTCAAAGTTCAGGGCGAGGTAACGTAAAGCACG | PBM binding z-score | 3.27
CATACAGGGTCAGCTAAGCCAGAGTAGGGACGGC | PBM binding z-score | 2.69
CCTACTGGGCTACGAAAGGTCATTGATTCAGTGA | PBM binding z-score | 3.71
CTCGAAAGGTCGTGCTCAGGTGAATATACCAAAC | PBM binding z-score | 3.77
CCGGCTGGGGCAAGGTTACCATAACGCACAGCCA | PBM binding z-score | -0.269
CCTACTGGGCCACGAAAGTTCATTGATTCAGTGA | PBM binding z-score | 3.51
ACTAGTTGGTCAGATGAGGTCACACACAATTCGG | PBM binding z-score | 4.58

* * *

Tested on: RARa:RXR (NR concentration 270 nM, RXRa partner concentration 90 nM)
Experiment summary: PBM binding z-score (relative to random genomic background probes); higher = stronger binding; sequences stand for … in GC…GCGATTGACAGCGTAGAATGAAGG
Consider the following sequences and their measured PBM binding z-score readings.
Observation type: PBM binding z-score

Biosequence | Measurement
TCGAGTAAGTTAGTCGGGGCATTCAGCCAACATA | -0.154
GCTGCTTGGTCAGGTTGGTCAGCTAACGGGTACG | -0.108
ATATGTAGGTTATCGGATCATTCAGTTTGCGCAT | 1.05
CCAGACAGGTGAAAGGTAACTTAGTCTGGTACGC | 1.59
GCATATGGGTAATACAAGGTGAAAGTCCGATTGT | 1.08
GGATCGAGGGCATTCGAGTTGATAGCATGGCGAT | 1.16

* * *

Consider the following sequences and their measured PBM binding z-score readings.
Tested on: PXR homodimer (NR concentration 270 nM)
Experiment summary: PBM binding z-score (relative to random genomic background probes); higher = stronger binding; sequences stand for … in GC…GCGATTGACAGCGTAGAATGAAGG

Biosequence | System under test | PBM binding z-score
CCTGCTAGGTCAATGGTCATCTAAAGCAGCTCGC | PXR homodimer (NR concentration 270 nM) | -0.609
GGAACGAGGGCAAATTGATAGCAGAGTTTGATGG | PXR homodimer (NR concentration 270 nM) | 0.703
CCTACTCGGCCATCAGGTCATTGATATCAACGTT | PXR homodimer (NR concentration 270 nM) | 1.21
GCTGGTAGGTCAACTGATGGTCAGCTAAAGCTCG | PXR homodimer (NR concentration 270 nM) | -0.226
ATCGAAAGGTCGACGAAGTGAGTATACACCGTTT | PXR homodimer (NR concentration 270 nM) | -0.00563
ATCTCTAGGTAAGATTCAGTTCAGTGAAGAACGC | PXR homodimer (NR concentration 270 nM) | 1.17
CCCTACGGGTCACGAGGTTATAGCACGACGAGCG | PXR homodimer (NR concentration 270 nM) | 0.609
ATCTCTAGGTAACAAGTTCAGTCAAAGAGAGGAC | PXR homodimer (NR concentration 270 nM) | 2.04
ATCTCTAGGTAACCAACTTCAGTGAATGCCGAAC | PXR homodimer (NR concentration 270 nM) | 0.34
ATCTCTAGGTAAGACTCAGTTCAGTAAAGAACGC | PXR homodimer (NR concentration 270 nM) | 1.74
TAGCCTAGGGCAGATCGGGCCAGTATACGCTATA | PXR homodimer (NR concentration 270 nM) | -0.7
CCTTCTAGGTCATGGTCAGCTAATCTACAGTATG | PXR homodimer (NR concentration 270 nM) | 0.327

* * *

Tested on: PPARg homodimer (NR concentration 180 nM)
Experiment summary: PBM binding z-score (relative to random genomic background probes); higher = stronger binding; sequences stand for … in GC…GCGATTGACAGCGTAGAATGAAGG

Biosequence | PBM binding z-score
ACTATTAGTTGAATTAGGGCAACCGATACGACGC | 1.34
GGAACGAGGGCAGGTTGATAGCAGAGTTTGATGG | 0.542
CAGACTAGGTCAGGGCCAGTATAGGAGGAACGTT | 0.388
GCTGCTAGGTCAACTGATGGTTAGCTAAAGCTCG | 1.62
CGTCCAAGGTCAGAGAGATCAGTGAATGCCGAGT | 1.89
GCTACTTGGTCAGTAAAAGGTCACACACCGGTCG | 5.33
ATCTCTAGGTAACCAAGTACAGTGAATGCCGAAC | 0.713
CCTTACGGGTCACTCCAGGTTATGGCATCGGAGT | 1.71
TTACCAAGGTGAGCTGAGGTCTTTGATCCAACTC | -0.466
CTACCAAGGTGAACAAGGTCGTTGCTTACTATTC | 1.15
ATATGTAGGTTACATCCGTGTCATTCAGGCTATG | 1.36
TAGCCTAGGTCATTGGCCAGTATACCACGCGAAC | 1.49

* * *

System: PPARg DBDmut IVT, anti-PPARg (DBD mutation: PPARg1 K132A/R137A, NR concentration 270 nM)
Experiment summary: PBM binding z-score (relative to random genomic background probes); higher = stronger binding; sequences stand for … in GC…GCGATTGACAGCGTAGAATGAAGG
The label depends only on PBM binding z-score: 1 if it is at least 0.03, -1 if it is smaller.

Biosequence | Label
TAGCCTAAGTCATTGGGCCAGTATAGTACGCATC | -1
GCTATTAGTTGAAAAGGCAACCGAATGATTCTCG | 1
AGAATGAGGTTCAGATCAGGGAAACAGAATACAT | 1
AGAACGAGGGCACGCTGAGTAGATAGCAGAGTAG | 1
CGTCTAAGTTCAACTAAGGTAACGTAAAGCACGC | 1
ACTATGAGTTGAGACGAGGGCAACCGATAGGTTG | -1
CGTAGCAGGCCAGGGTCACTCAAGCATTTCGCTT | -1
CGTCAAAGTTCAAGGTAACGTATCAGAAAGCAGC | -1
CCTAGCAGGCCAATCTGGGTCACGCAAGGCTTGA | -1
ATCGGAAGGTCGACGAGGTGAGTATACACCGTTT | -1
GCAGACAGGTGAAGCGCAGGTAACTCAGGGTGGC | -1

* * *

Test system: PPARg:RXRa 30nM:10nM, anti-RXR (NR concentration 30 nM, RXRa partner concentration 10 nM)
Experiment summary: PBM binding z-score (relative to random genomic background probes); higher = stronger binding; sequences stand for … in GC…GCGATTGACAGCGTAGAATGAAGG
Consider the following sequences and their measured PBM binding z-score readings.
Observation type: PBM binding z-score

Biosequence | Observation type | Measurement
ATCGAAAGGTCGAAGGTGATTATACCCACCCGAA | PBM binding z-score | 2.33
TCGAGTATGTTACCAATGGGGCATTCAGCTTTCT | PBM binding z-score | 1.14
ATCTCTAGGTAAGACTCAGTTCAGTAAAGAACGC | PBM binding z-score | 0.474
CCTTACGGGTCACTGACAGGTTCTAGCATTTGGA | PBM binding z-score | 1.11
CAAACTAGTTCACAGAGGTCAAAGTCCGTGCGTA | PBM binding z-score | 2.33
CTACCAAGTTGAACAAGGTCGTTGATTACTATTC | PBM binding z-score | 0.12
ATCGAAAGATCGAAGGTGAGTATACCCACCCGAA | PBM binding z-score | 0.2
CGAACTAGGTCAAGGAGAGTGAATCTCCGCACGC | PBM binding z-score | 3.34
CGTCCATGGTCAGAGAGGTCAGTGAATGCCGAGT | PBM binding z-score | -0.535
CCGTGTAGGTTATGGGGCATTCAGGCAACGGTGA | PBM binding z-score | 1.74
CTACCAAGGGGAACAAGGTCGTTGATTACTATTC | PBM binding z-score | 0.0626
AGCCAAAGTTCATCTAGGTAACGTAAGATATGCT | PBM binding z-score | 2.27
TCTGCTAGGTCAGTTGGCCAGCTAACGAGCTGCC | PBM binding z-score | 0.758
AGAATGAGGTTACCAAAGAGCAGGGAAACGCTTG | PBM binding z-score | 0.623
TCTCGGAGAACACGAAAGGTCAGAGCTCGACATC | PBM binding z-score | 2.43
CGTCAACGTTCAAGGTAACGTAACAGAAAGCAGC | PBM binding z-score | -0.128
ATCGTAAGGTCGACGAGGTGAGTATACACCGTTT | PBM binding z-score | 0.685
AGAATGAGGTTAAGATCAGGAAAACAGAATACAT | PBM binding z-score | 1.03
AATACAGGGTCACCGTAGGCCAGAGTACGCACAG | PBM binding z-score | 3.15
GCTAGTTGGTCAGTAAAAGGTCACACTCCGGTCG | PBM binding z-score | 1.86
CGTCCAAGGTCGGAGAGGTCAGTGAATGCCGAGT | PBM binding z-score | 0.133
CAAACTAGGCCAAGAGGTCAAAGTCCGCTTCCCG | PBM binding z-score | 5.68
CCGACAGGGGCAGAAAGGTTACCATACCATCCGG | PBM binding z-score | 0.381
AATCAAAGTTCAGGACGAGGTAACGTAAAGCACG | PBM binding z-score | 0.724
CCTGCAAGGTCATGGTCAGCTAATCTACAGTATG | PBM binding z-score | 2.07
TGAAGGAGGTTATAAGATCAGGGAACGTTGCAAA | PBM binding z-score | 0.992
